- System: 485368-065-R3-J5-PDC spheroids with HUVEC/MSC, viability;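 note: spheroids exposed to agents for seven days before readout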
- assay.procedure: Anticancer human tumor 485368-065-R3-J5-PDC patient-derived pancreatic carcinoma cell line growth inhibition [RAS]; active = viability on the fitted dose curve at most 10% of control; inactive = the rest
- test.settings: compound 0.03 µM
Labels: TRUE for active, FALSE for inactive

compound="CC1(C)CCC(Nc2ncc(C(F)(F)F)c(-c3c[nH]c4c(P(C)(C)=O)c(C#N)ccc34)n2)CN1 (centres undefined)" assigned_category=FALSE
compound="CCn1c(-c2cc(N3CCN(C)CC3)cnc2C(C)OC)c2c3cc(ccc31)-c1csc(n1)CC(NC(=O)C1CC1C)C(=O)N1CCCC(N1)C(=O)OCC(C)(C)C2 (centres undefined)" assigned_category=FALSE
compound="CCn1c(-c2cccnc2C(C)OC)c2c3cc(ccc31)N1CCOC(CC(NC(=O)C(C(C)C)N(C)C(=O)C3(F)CCN(C(=O)C#CC(C)(C)N(C)C)CC3)C(=O)N3CCCC(N3)C(=O)OCC(C)(C)C2)C1 (centres undefined)" assigned_category=FALSE
compound=CCc1c2c(nc3ccc(O)cc13)-c1cc3c(c(=O)n1C2)COC(=O)[C@]3(O)CC assigned_category=TRUE
